The reported numbers originate from ChEMBL document CHEMBL1133005.

assay: Evaluated for ionization constant (pKa3) by titrations performed in the presence of MeOH at a dielectric constant of 56; type: physicochemical; conditions: MeOH cosolvent; read-out: pKa3
QUANTITY: pKa
Provide a numeric answer; units are not to be included.

Exercise: # lookup: pKa of `O=C(O)CN(CCN(CC(=O)O)Cc1ccccc1O)Cc1ccccc1O`
Key: 8.36

* * *

assay: Evaluated for ionization constant (pKa5) by titrations performed in the presence of MeOH at a dielectric constant of 49; assay type: physicochemical; conditions: MeOH cosolvent; read-out: pKa5
QUANTITY: pKa

Exercise: # lookup: pKa of `O=C(O)CN(CCN(CC(=O)O)Cc1ccccc1O)Cc1ccccc1O`
Key: 2.72

* * *

assay: Evaluated for ionization constant (pKa4) by titrations performed in presence of MeOH solvent at a dielectric constant of 49; type: physicochemical; conditions: MeOH cosolvent; read-out: pKa4
QUANTITY: pKa

Exercise: # lookup: pKa of `COC(=O)CN(CCN(CC(=O)[O-])Cc1ccccc1O)Cc1ccccc1O.[Na+]`
Key: 2.94

* * *

experiment: Evaluated for ionization constant (pKa3) by titrations performed in presence of a MeOH and at a dielectric constant of 49; type: physicochemical; settings: MeOH cosolvent; read-out: pKa3
QUANTITY: pKa
Provide a numeric answer; units are not to be included.

Exercise: # lookup: pKa of `COC(=O)CN(CCN(CC(=O)OC)Cc1ccccc1O)Cc1ccccc1O`
Key: 5.4

* * *

test: Evaluated for ionization constant (pKa2) by titrations performed in the presence of EtOH at a dielectric constant of 63; format: physicochemical; conditions: EtOH cosolvent, dielectric constant 63; read-out: pKa2
QUANTITY: pKa
Provide a numeric answer; units are not to be included.

Exercise: # lookup: pKa of `CCOC(=O)CN(CCN(CC(=O)[O-])Cc1ccccc1O)Cc1ccccc1O.[Na+]`
Key: 11.4

* * *

test: Evaluated for ionization constant (pKa3) by titrations performed in presence of a MeOH and at a dielectric constant of 62; type: physicochemical; conditions: MeOH cosolvent; read-out: pKa3
QUANTITY: pKa

Exercise: # lookup: pKa of `COC(=O)CN(CCN(CC(=O)OC)Cc1ccccc1O)Cc1ccccc1O`
Key: 5.58

* * *

assay: Evaluated for ionization constant (pKa5) by titrations performed in presence of MeOH solvent at a dielectric constant of 62; type: physicochemical; details: MeOH cosolvent; read-out: pKa5
QUANTITY: pKa

Exercise: # lookup: pKa of `COC(=O)CN(CCN(CC(=O)[O-])Cc1ccccc1O)Cc1ccccc1O.[Na+]`
Key: 1.15

* * *

test: Evaluated for ionization constant (pKa4) by titrations performed using the method of Yasuda and Shedlovsky; format: physicochemical; conditions: read-out: pKa4
Parameter: pKa. Scope: all listed entries.

// known answers, use as guide
SAMPLE SMILES	pKa
COC(=O)CN(CCN(CC(=O)OC)Cc1ccccc1O)Cc1ccccc1O	1.4
COC(=O)CN(CCN(CC(=O)[O-])Cc1ccccc1O)Cc1ccccc1O.[Na+]	2.49
O=C(O)CN(CCN(CC(=O)O)Cc1ccccc1O)Cc1ccccc1O	4.58

Exercise: # lookup: pKa of `CCOC(=O)CN(CCN(CC(=O)OCC)Cc1ccccc1O)Cc1ccccc1O`
Key: 1.8

* * *

assay: Evaluated for ionization constant (pKa3) by titrations performed in presence of MeOH solvent at a dielectric constant of 49; format: physicochemical; details: MeOH cosolvent; read-out: pKa3
QUANTITY: pKa

Exercise: # lookup: pKa of `COC(=O)CN(CCN(CC(=O)[O-])Cc1ccccc1O)Cc1ccccc1O.[Na+]`
Key: 7.41
